target: RSV F on RSV subtype B virus (mKate-RSV B 18537) (Respiratory Syncytial Virus, subtype B, …, UniProt P13843 26-574); test: cell-based or functional assay
Sequence (P13843 26-574): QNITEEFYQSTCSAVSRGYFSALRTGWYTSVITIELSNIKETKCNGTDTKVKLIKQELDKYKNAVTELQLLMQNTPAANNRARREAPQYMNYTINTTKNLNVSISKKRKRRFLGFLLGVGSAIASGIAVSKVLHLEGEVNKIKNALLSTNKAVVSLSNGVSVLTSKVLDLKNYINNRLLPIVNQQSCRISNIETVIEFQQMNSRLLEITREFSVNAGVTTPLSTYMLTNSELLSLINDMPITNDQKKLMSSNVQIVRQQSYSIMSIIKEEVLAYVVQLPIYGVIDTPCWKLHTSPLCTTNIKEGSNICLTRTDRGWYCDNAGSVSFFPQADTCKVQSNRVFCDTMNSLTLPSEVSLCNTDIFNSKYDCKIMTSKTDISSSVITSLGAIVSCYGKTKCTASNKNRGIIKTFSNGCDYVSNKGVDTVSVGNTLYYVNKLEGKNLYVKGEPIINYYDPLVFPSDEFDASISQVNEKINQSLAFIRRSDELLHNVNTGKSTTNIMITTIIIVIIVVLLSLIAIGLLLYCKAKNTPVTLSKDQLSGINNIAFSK
Metric: neut IC50 (ug/ml) subtype B (graham)

Recorded neut IC50 (ug/ml) subtype B (graham), per entry:
ADI-14583 (antibody, V domains shown) VH: QVQLVQSGAEVKEPGASVKVSCKASGYTFTNYGISWVRQAPGQGLEWLGWISAYNGNIHYAQKVQGRVTMTTDTSTSTGFMELRSLRSDDTAVYYCAREPPVIAAGDFQHWGQGTLVTVSS VL: ETTLTQSPLSLPVTLGQPASISCRSSQSLVHSNGNTYLSWFQQRPGQSPRRLIYRVSNRDSGVPDRFSGSGSGTDFTLKISRVEAEDVGLYYCMQGTHWPPDFGQGTRLEIK
0.06 µg/mL
ADI-14405 (antibody, V domains shown, also called Ab 71; Antibody Number 71) VH: QVQLVQSGTEVKKPGASVKVSCKASGYTFTNYDISWVRQAPGQGLEWMGWISGSTGNTIYAQNLQGRLTMTTDTSTSTAYMELRSLRSDDTAIYYCARDNVGYASGNYFDYWGQGTLVTVSS VL: SYVLTQPPSVSVAPGKTARIPCGGNNIGSKSVHWYQQRPGQAPVLVIYYDSVRPSGIPERFSGSNSGNTATLTISTVEAGDEADFYCQVWDSSRDHEVFGGGTKLTVL
0.04 µg/mL
ADI-14334 (antibody, V domains shown) VH: EVQLVESGGGLVKPGGSLRLSCAASGVTVSSYYMTWVRQAPGKGLEFISDISSSSTYTNYADSVKGRFTISRDNAKSSLYLQMNNLRAEDTAVYYCARLGITVTGVGYFDLWGRGTLVTVSS VL: QPGLTQPPSVSGAPGQRVTISCTGSSSNIGAGYDVHWYQQLPGTAPKLLIHDNNNRPSGVPDRFSGSKSGTSASLAITGLQVEDEADYYCQSYDSSLSNYVFGTGTKLTVL
0.11 µg/mL
ADI-20998 (antibody, V domains shown) VH: QVQLVQSGGGVVQPGRSLRLSCAASGFTLSTYGMHWVRQAPGKGLEWVAVIYYDESNKFYADSVQGRFTISRDDSKNTLFLQMNSLRAEDTAVYYCARESRPRGYSYSDFDSWGQGTLVTVSS VL: QPGLTQPRSVSGSPGQSVTISCTGTSSDVGTFNYVSWYQQHPGKAPKLMIYDVNQRPSGVPDRFSGSKSGNTASLTISGLQAEDEADYYCCAYAGYYSFGGGTKLTVL
> 25 µg/mL

The measured neut IC50 (ug/ml) subtype B (graham) associated with ADI-20975 (antibody, V domains shown) VH: QVQLVESGTHVKKPGASVKVSCEASDDTFNNKGIVWVRQAPGQGLEWMGWIRPNNGNTKYAQKFQGRVTMTTDASTNTAYMELRSLRSGDTAVYYCAREQFKWNDFYFDYWGQGILVTVSS VL: SYELMQPPSVSVAPGQTATITCGGSNIGSETVHWYQQKPGQAPVLVVHDDTDRPSGIPERFSGSNSGNTATLTISGVEAGDEADFYCQVRDSRTDDVVFGGGTKLTVL reads 0.49 µg/mL

The measured neut IC50 (ug/ml) subtype B (graham) associated with ADI-20974 (antibody, V domains shown) VH: EVQLVESGGGLVKPGGSLRLSCAASGFSFSSYQINWVRQAPGKGLEWVSSISGGSSYTDYADSIKGRFTISRDNAKKSAFLQMKSLRADDTAVYYCARALMATAGGLAFDIWGQGTMVTVSS VL: QPVLTQPPSVSGAPGQRVTISCTGSGSNIGAGYDVHWYQQVPGTAPKLLILRNTNRPSGVPDRFSGSKSGTSASLAITGLQAEDEADYYCQSYDRSLSVVFGGGTKLTVL reads 0.09 µg/mL

The measured neut IC50 (ug/ml) subtype B (graham) associated with ADI-20964 (antibody, V domains shown) VH: QVQLVQSGAEVKKPGASVKVSCKASGYTFTHYGISWVRQAPGQGLEWMGWISAYNGNTNYAQKLQGRVTMTTDTSTSTAYMEVRSLRYDDTAVYYCARDVPVEAATSPEFWGQGTLVTVSS VL: DIVMTQTPLSLPVTLGQPASISCRSSQSLVYSDGNTYLSWFQQRPGQSPRRLIYKVSNRDSGVPNRFSGSGSGTDFTLKISRVEAEDVGVYYCVQNTHWPAYTFGQGTKVEIK reads 0.14 µg/mL
